Provenance of the data: patent US20230303994

Molecular target: pre-pro-human insulin
observable: Activity PPI cleavage

INSERT INTO measurements (protein, observable, measured_result) VALUES
  ('trypsin variant SEQ ID NO: 70 (protein) IVGGYTCAANSIPYQVSLNSGSHRCGGSLINSQWVVSAAHCYKSRIQVRLGEHNIDVLEGNEQFINAAKIITHPNFNGNTLDNDIMLIKLSSPATLNSRVATVSLPRSCAAAGTECLISGWGNTKSSGSSYPSLLQCLKAPVLSDSSCKSSYPGQITGNMICVGFLEGGKDACQGDSGGPVVCNGQLQGIVSYGYGCAQKNKPGVYTKVCNYVNWIQQTIAAN', 'Activity PPI cleavage', 'yes'),
  ('trypsin variant SEQ ID NO: 74 (protein) IVGGYTCAANSIPYQVSLNSGSHRCGGSLINSQWVVSAAHCYKSRIQVRLGEHNIDVLEGNEQFINAAKIITHPNFNPNTLDNDIMLIKLSSPATLNSRVATVSLPRSCAAAGTECLISGWGNTKSSGSSYPSLLQCLKAPVLSDSSCKSSYPGQITGNMICVGFLEGGKDACQGDSGGPVVCNGQLQGIVSSGYGCAQKNKPGVYTKVCNYVNWIQQTIAAN', 'Activity PPI cleavage', 'yes'),
  ('trypsin variant SEQ ID NO: 28 (protein) IVGGYTCAANSIPYQVSLNSGSHVCGGSLINSQWVVSAAHCYKSRIQVRLGEHNIDVLEGNEQFINAAKIITHPNFNGNTLDNDIMLIKLSSPATLNSRVATVSLPRSCAAAGTECLISGWGNTKSSGSSYPSLLQCLKAPVLSDSSCKSSYPGQITGNMICVGFLEGGKDACQGDSGGPVVCNGQLQGIVSSGYGCAQKNKPGVYTKVCNYVNWIQQTIAAN', 'Activity PPI cleavage', 'yes');
